# EXPERIMENTAL TARGET: T1, Mouse NRP-1 His (mouse, UniProt P97333 22-856)
# T1 construct: Recombinant monomeric protein; also called mNRP-1; not shown: His tag
# T1 sequence (P97333 22-856 limits assumed): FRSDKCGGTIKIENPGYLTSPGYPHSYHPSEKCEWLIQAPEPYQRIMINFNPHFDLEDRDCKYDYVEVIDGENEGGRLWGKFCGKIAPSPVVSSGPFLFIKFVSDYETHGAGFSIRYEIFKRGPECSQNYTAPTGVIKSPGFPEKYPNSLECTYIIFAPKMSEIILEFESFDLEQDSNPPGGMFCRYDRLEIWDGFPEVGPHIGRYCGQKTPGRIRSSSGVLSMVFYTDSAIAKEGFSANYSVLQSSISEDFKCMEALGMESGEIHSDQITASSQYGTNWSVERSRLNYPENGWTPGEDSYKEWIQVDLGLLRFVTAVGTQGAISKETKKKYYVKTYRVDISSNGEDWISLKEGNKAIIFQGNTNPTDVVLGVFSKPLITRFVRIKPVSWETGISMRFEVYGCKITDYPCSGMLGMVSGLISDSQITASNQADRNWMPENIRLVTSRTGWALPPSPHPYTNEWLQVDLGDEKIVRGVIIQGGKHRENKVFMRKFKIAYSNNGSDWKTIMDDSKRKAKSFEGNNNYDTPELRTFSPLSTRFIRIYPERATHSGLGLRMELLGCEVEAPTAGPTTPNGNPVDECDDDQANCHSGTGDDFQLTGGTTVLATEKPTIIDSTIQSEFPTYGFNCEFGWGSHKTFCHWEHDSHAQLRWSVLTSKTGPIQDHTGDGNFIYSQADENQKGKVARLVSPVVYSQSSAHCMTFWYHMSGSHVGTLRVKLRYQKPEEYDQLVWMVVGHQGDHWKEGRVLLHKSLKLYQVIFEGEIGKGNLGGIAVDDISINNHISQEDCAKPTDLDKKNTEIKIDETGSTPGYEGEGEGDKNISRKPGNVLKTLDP
# MEASUREMENT DESCRIPTION: BLI Octet QKe, IgG4 S228P on AHC sensor, multi-concentration monomeric antigen, global 1:1 fit
ASSAY METRIC: pKd
Answers are plain numbers, as −log10 of the molar value.

MAB14 IgG4 S228P (antibody, V domains shown) VH: QVQLQQWGAGLLKPSETLSLTCAVYGGSFRGYYWEWSRQPPGKGLEWIGEISHSGSTNYNPSLKSRVTISVDTSKNQFSLKLSPVTAADTAVYYCARARPYREPYGMDVWGQGTTVTVSS VL: DIQLTQSPSSVSASVGDRVTITCRASQDISSWLAWYQQKPGKAPKLLIYAASSLQSGVPSRFSGSGSGTDFTLTISSLQPEDFATYYCQQELAFPRTFGGGTKVEIKR = 8.57
MAB5 IgG4 S228P (antibody, V domains shown) VH: QVQLVQSGAEVKKPGASVKVSCKASGYTFTSYYMHWVRQAPGQGLEWMGIINPQGGDTSYAQKFQGRVTMTRDTSTSTVYMELSSLRSEDTAVYYCARDRGMYYASGFGPWGQGTLVTVSS VL: EIVMTQSPGTLSLSPGERATLSCRASQSVSSSYLAWYQQKPGQAPRLLIYGASNRATGIPDRFSGSGSGTDFTLTISRLEPEDFAVYYCQQLSSFPITFGGGTKVEIKR = 8.18

Hi, could you look up pKd for each item in my list?
1. MAB13 IgG4 S228P (antibody, V domains shown) VH: QVQLQQWGAGLLKPSETLSLTCAVYGGSFRGYYWEWIRQPPGKGLEWIGEISHSGSTNYNPSLKSRVTISVDTSKNQFSLKLSSVTAADTAVYYCARARPYREPYGMDVWGQGTTVTVSS VL: DIQLTQSPSSVSASVGDRVTITCRASQDISSWLAWYQQKPGKAPKLLIYAASSLQSGVPSRFSGSGSGTDFTLTISSLQPEDFATYYCQQELAFPRTFGGGTKVEIKR
2. MAB4 IgG4 S228P (antibody, V domains shown) VH: QVQLVQSGAEVKKPGASVKVSCKASGYTFSRYYMHWVRQAPGQGLEWMGIINPLGGSTLYAQKFQGRVTMTRDTSTSTVYMELSSLRSEDTAVYYCARDLGYYGSGMHVWGQGTLVTVSS VL: DIQMTQSPSSVSASVGDRVTITCRASQGISRWLAWYQQKPGKAPKLLIYAASSLQSGVPSRFSGSGSGTDFTLTISSLQPEDFATYYCQQANLLPFTFGGGTKVEIKR

1: 8.43; 2: 8.64
